// data source = ChEMBL document CHEMBL1629635

- System: Klebsiella pneumoniae
- METHOD_DESCRIPTION: Bactericidal activity against Klebsiella pneumoniae VT 1367 assessed as eradication of pre-formed biofilm at 50 times MIC after 24 hrs by serial dilution
- Type: functional

- CHEMICAL_STRUCTURE: "CO[C@H]1/C=C/O[C@@]2(C)Oc3c(C)c(O)c4c(O)c(c(/C=N/N5CCN(C)CC5)c(O)c4c3C2=O)NC(=O)/C(C)=C\\C=C\\[C@H](C)[C@H](O)[C@@H](C)[C@@H](O)[C@@H](C)[C@H](OC(C)=O)[C@@H]1C"
  TESTED_ON: "Klebsiella pneumoniae"
  log10cfu: 8.5
- CHEMICAL_STRUCTURE: "C[C@H]1COc2c(N3CCN(C)CC3)c(F)cc3c(=O)c(C(=O)O)cn1c23.C[C@H]1COc2c(N3CCN(C)CC3)c(F)cc3c(=O)c(C(=O)O)cn1c23.O"
  TESTED_ON: "Klebsiella pneumoniae"
  log10cfu: 8.62
- CHEMICAL_STRUCTURE: "CC1(C)S[C@@H]2[C@H](NC(=O)[C@H](N)c3ccccc3)C(=O)N2[C@H]1C(=O)O"
  TESTED_ON: "Klebsiella pneumoniae"
  log10cfu: 8.33
- CHEMICAL_STRUCTURE: "CO/N=C(\\C(=O)N[C@@H]1C(=O)N2C(C(=O)O)=C(COC(C)=O)CS[C@H]12)c1csc(N)n1"
  TESTED_ON: "Klebsiella pneumoniae"
  log10cfu: 8.54
